Below is a list of entries, each paired with its recorded pIC50 value.
target of assay: GPR6:Gsα-Fusion Protein (Homo sapiens, UniProt P46095)
Construct: expressed in transfected cells
Sequence (P46095 with tags, fused parts or gaps): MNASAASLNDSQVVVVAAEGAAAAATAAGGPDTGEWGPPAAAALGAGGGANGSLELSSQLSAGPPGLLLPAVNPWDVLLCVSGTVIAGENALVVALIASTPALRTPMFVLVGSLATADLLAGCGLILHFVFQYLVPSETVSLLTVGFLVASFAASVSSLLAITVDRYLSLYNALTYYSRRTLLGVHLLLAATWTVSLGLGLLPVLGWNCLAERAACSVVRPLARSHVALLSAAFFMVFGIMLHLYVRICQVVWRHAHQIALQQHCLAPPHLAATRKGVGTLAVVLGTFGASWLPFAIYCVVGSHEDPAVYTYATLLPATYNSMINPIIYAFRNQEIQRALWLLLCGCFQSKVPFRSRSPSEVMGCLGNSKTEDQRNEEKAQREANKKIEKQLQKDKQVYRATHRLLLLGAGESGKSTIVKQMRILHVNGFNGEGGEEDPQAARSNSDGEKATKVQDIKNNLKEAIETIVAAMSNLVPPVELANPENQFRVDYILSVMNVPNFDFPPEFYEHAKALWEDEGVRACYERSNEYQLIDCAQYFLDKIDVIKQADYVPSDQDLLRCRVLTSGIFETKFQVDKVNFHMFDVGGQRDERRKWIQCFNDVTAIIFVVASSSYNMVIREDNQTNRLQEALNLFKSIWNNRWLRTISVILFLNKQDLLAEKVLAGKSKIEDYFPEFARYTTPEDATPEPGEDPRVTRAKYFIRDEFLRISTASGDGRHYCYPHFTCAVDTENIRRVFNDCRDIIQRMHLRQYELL
test: [35S]GTPγS membrane binding assay (Example 4A)
Format: biochemical
condition info: mean +/- standard deviation (number of assays in brackets); read-out: IC50 Values GTP Assay Example 4A
pIC50: −log10 of the molar value.

| compound | pIC50 |
| --- | --- |
| O=C(/N=C1\SSC2=NCCN21)c1cccc2ccccc12 [ARE138] | 6.35 |
| O=C(N=C1SSC2=NCCN21)c1ccccc1F [ARE132] | 6.46 |
| COc1ccc(C(=O)N=C2SSC3=NCCN32)cc1 [ARE122] | 6.08 |
| O=C(NC(=S)N1CCNC1=S)c1ccccc1F [ARE131] | 4.37 |
| O=C(NC(=S)N1CCNC1=S)c1ccc2ccccc2c1 [ARE135] | 4.00 |
| O=C(N=C1SSC2=NCCN21)c1cccs1 [ARE112] | 6.38 |
| O=C(NC(=S)N1CCNC1=S)c1ccc(C(F)(F)F)cc1 [ARE115] | 5.80 |
| Cc1noc(C)c1C(=O)/N=C1\SSC2=NCCN21 [ARE148] | 6.34 |
| COc1cccc(C(=O)NC(=S)N2CCNC2=S)c1 [ARE123] | 4.25 |
| O=C(NC(=S)N1CCNC1=S)c1ccc(F)cc1F [ARE133] | 6.96 |
| O=C(N=C1SSC2=NCCN21)c1ccon1 [ARE150] | 6.48 |
| CC(C)(C)c1ccc(C(=O)N=C2SSC3=NCCN32)cc1 [ARE118] | 6.19 |
| O=C(NC(=S)N1CCNC1=S)c1ccc(Cl)cc1 [ARE119] | 6.35 |
| O=C(N=C1SSC2=NCCN21)c1ccc(F)cc1F [ARE134] | 6.39 |
| O=C(NC(=S)N1CCNC1=S)c1ccco1 [ARE143] | 4.17 |
| O=C(N=C1SSC2=NCCN21)c1ccc(C(F)(F)F)cc1 [ARE116] | 6.24 |
| O=C(N=C1SSC2=NCCN21)c1ccc(F)cc1 [ARE128] | 6.43 |
| Cc1cccc(C(=O)NC(=S)N2CCNC2=S)c1 [ARE125] | 5.42 |
| O=C(NC(=S)N1CCNC1=S)c1ccccc1 [ARE113] | 4.00 |
| Cc1cccc(C(=O)N=C2SSC3=NCCN32)c1 [ARE126] | 6.10 |
| COc1cccc(C(=O)N=C2SSC3=NCCN32)c1 [ARE124] | 6.51 |
| O=C(NC(=S)N1CCNC1=S)c1cccc(F)c1 [ARE129] | 5.50 |
| O=C(N=C1SSC2=NCCN21)c1ccccc1 [ARE114] | 6.36 |
